Record form. Attribute: Growth Percent. Fill in for each entry.
Test system: MDA-MB-435
Assay: NCI-60 SRB screening (one-dose and five-dose)
Format: cell-based, human
Details: MDA-MB-435, 10 μM, 48 h
Method: The compounds were added at a single concentration and the cell cultures were incubated for 48 h. The end point determinations were made with a protein binding dye, sulforhodamine B (SRB). […] The percentage of growth was evaluated spectrophotometrically versus controls not treated with test agents after 48-h exposure and using SRB protein assay to estimate cell viability or growth. […]
Please give a number only; it is taken to be in %.

## Input Return Growth Percent (reported value) for this molecule: C[C@H]1[C@@H]2[C@H]3CC[C@@H]4[C@@]5(C)CC[C@H](O)C(C)(C)[C@@H]5CC[C@@]4(C)[C@]3(C)CC[C@]23CO[C@@]1(C)[C@@H](C(=O)/C=C/c1ccco1)C3 [Compound 5]
## Output 17.83

## Input Return Growth Percent (reported value) for this molecule: CC(=O)[C@H]1C[C@]23CC[C@]4(C)[C@H](CC[C@@H]5[C@@]6(C)CCC(=O)C(C)(C)[C@@H]6CC[C@]54C)[C@H]2[C@H](C)[C@@]1(C)OC3 [Compound 2]
## Output 100.67

## Input Return Growth Percent (reported value) for this molecule: COC(=O)[C@]12CC[C@@H](C(=O)/C=C/c3cccnc3)[C@@H]1[C@H]1CC[C@@H]3[C@@]4(C)C/C(=C\c5cccnc5)C(=O)C(C)(C)[C@@H]4CC[C@@]3(C)[C@]1(C)CC2 [Compound 7]
## Output −69.71
